target: cannabinoid central type (CB1) receptor (Rattus norvegicus, UniProt P20272); construct: rat cerebellar membrane fraction and spleen cells were respectively used; from tissue; host or cells: rat cerebellar membrane fraction (male SD rats, 7-9 weeks old); experiment: Binding assay, cannabinoid central type receptor (CB1), rat cerebellar membrane fraction, [3H]Win55212-2
Sequence (P20272 whole entry): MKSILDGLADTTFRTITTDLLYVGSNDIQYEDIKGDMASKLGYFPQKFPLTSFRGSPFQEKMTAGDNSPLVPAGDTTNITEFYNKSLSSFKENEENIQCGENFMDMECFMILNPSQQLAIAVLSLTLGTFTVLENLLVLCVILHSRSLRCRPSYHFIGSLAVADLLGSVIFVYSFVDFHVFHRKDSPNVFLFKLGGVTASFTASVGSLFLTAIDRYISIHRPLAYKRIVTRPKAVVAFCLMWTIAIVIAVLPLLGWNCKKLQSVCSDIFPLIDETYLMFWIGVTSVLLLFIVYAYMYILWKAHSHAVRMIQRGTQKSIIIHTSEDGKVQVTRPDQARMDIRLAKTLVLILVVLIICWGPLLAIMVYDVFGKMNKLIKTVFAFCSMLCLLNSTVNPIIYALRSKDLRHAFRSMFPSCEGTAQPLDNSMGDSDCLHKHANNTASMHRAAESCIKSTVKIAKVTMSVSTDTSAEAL
Property: pKi; scope: individual compounds
# pKi = -log10(concentration in molar units)

[[record]]
compound = "CCCCCOc1c(OC)ccc2c(=O)n(CCc3ccc(N)cc3)c(=O)[nH]c12"
number = 6.96


API: the following record is the query input.
I have this compound here, CCCCCOc1c(OC)ccc(C2=NC(C)(C)CO2)c1CO , and I need its recorded pKi.
6.19
